In this section we review reported protein stability index values for a set of variants.
B1: SMG5 (parent)
chain: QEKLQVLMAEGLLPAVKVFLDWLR

Variants of: B1
Assay: protein stability index of a GFP-peptide fusion (GPS, HEK-293T) (PSI 1-6); higher = more stable;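 further: lentivirally expressed fusions sorted by FACS into six bins by GFP to DsRed ratio, PSI derived from sequencing read proportions per bin multiplied by bin number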
Conditions: c terminus: a fixed tail appended
observed property: protein stability index

[[record]]
mut = "W22G"
recorded_value = 2.63

[[record]]
mut = "E2Y"
recorded_value = 2.15

[[record]]
mut = "Q5I"
recorded_value = 2.86

[[record]]
mut = "F19P"
recorded_value = 2.17

[[record]]
mut = "Q1P"
recorded_value = 2.09

[[record]]
mut = "E2Q"
recorded_value = 2.92

[[record]]
mut = "A9N"
recorded_value = 3.04

[[record]]
mut = "R24W"
recorded_value = 1.83

[[record]]
mut = "K17A"
recorded_value = 2.99

[[record]]
mut = "K3M"
recorded_value = 1.5

[[record]]
mut = "G11H"
recorded_value = 1.99

[[record]]
mut = "L7A"
recorded_value = 2.4

[[record]]
mut = "G11Y"
recorded_value = 2.29

[[record]]
mut = "L23K"
recorded_value = 1.83

[[record]]
mut = "R24F"
recorded_value = 2.23

[[record]]
mut = "V16D"
recorded_value = 1.95

[[record]]
mut = "K17Y"
recorded_value = 2.78

[[record]]
mut = "P14M"
recorded_value = 1.75

[[record]]
mut = "W22F"
recorded_value = 2.09

[[record]]
mut = "G11M"
recorded_value = 2.38

[[record]]
mut = "Q1K"
recorded_value = 4.12

[[record]]
mut = "L4S"
recorded_value = 2.75

[[record]]
mut = "K17V"
recorded_value = 1.52

[[record]]
mut = "L13F"
recorded_value = 1.38


Every entry's value here was drawn from the supplement of paper PMC10567573.
